Would you mind telling me the reported apparent KD of MS2 coat protein of each entry?
test system: MS2 coat protein; experiment: apparent KD of MS2 coat protein; designed switch direction (-1 OFF switch, 1 ON switch): -1; higher = weaker reporter binding; details: input ligand: microRNA oligo, concentration not stated

Quick one: give measured apparent KD of MS2 coat protein for GCGCACCUACCAAAAGGUAGGCUAACAUGAGGAUCACCCAUGUAGGAUAUCGAUUGCUUUGCAGUCGAGAAGGACAUGAUGCGC [JL ENG3 3.80 Mod 11] (Eterna round: R96, puzzle: Exclusion NG 3)
21.4 nM

Quick one: give measured apparent KD of MS2 coat protein for GCAAGAUUCUGAGGAUAUGCGCUACAUCCCACAGCAGAAGGCGGAAAUUGACUGACAUGAGGAUCACCCAUGUGAUCCGCUUUC [Eternabot solution 33] (Eterna round: R96, puzzle: Exclusion NG 1)
21.2 nM

Quick one: give measured apparent KD of MS2 coat protein for UACAUGAGGAUCACCCAUGUUUUGUCGUGUAUGGUAUUUAUCUAGGAUAUCAAUUUAUUUAUUUAUGAGAAGGAGAAUAUUAAU [JMF's solution 5] (Eterna round: R96, puzzle: Exclusion NG 3)
28.1 nM

Quick one: give measured apparent KD of MS2 coat protein for AUCGUGCAGCUUUGCUGUACGAGUACAUGAGGAUCACCCAUGUAGGAUAUGGUACGCUUUGCGUGCUAGAAGGAUAUGCGAUUU [EX ENG3 1.47] (Eterna round: R96, puzzle: Exclusion NG 3)
23.9 nM

Quick one: give measured apparent KD of MS2 coat protein for CUGAACCCGGUAGGAUAUAUUGUGGGCAAGCAUGGAACGACAUGAGGAUCACCCAUGUAAUUUAGGUAGAAGGGCCAAGAGAUU [Excl-NG2-LRO10] (Eterna round: R96, puzzle: Exclusion NG 2)
41.8 nM
